assay: Inhibition of Thermotoga maritima membrane bound pyrophosphatase at 100 uM using sodium pyrophosphate as substrate preincubated for 5 mins followed by substrate addition and measured after 5 mins by spectrophotometry; conditions: read-out: IC50
In this section, each of the compounds is paired with its reported IC50.
Record the value in µM, omitting the unit from your answer.

SMI: CC(C)(C)c1cc(C(=O)Nc2ccc(S(N)(=O)=O)cc2)cc(C(C)(C)C)c1
READOUT: IC50
ASSAY_RESULT: 47

**Query** Please look at this compound and report its IC50: CCOC(=O)c1cc(-c2cc(C(C)(C)C)cc(C(C)(C)C)c2)on1
**Result** 72

**Query** Please look at this compound and report its IC50: O=C(Oc1ccccc1Br)c1cnc(-c2ccccc2)s1
**Result** 48

**Query** Please look at this compound and report its IC50: Cc1cc(C)cc(-c2cc(C(=O)Oc3ccccc3Br)no2)c1
**Result** 6.9

**Query** Please look at this compound and report its IC50: CC(C)(C)c1cccc(-c2cc(C(=O)Oc3ccccc3Br)no2)c1
**Result** 6.7

**Query** Please look at this compound and report its IC50: CCOC(=O)c1cc(-c2ccc(OC)c(S(=O)(=O)Nc3cccc4c3OCO4)c2)on1
**Result** 36
